tested on: extracellular LRR domain protein of PXL2 (PXL2^LRR) (Arabidopsis thaliana)
test name: ITC; twenty injections of peptide solution titrated into PXL2^LRR in the ITC cell
Where no end group is shown, it is not given here. [ ]: non-standard residue; d: D form. Hyp = O=C(O)[C@@H]1C[C@@H](O)CN1
For each entry below, report its Kd value.
Give bare numbers, in µM.

1. HGV[Hyp]SG[Hyp]NPISN [CLE42] | 2.75

With those in mind, consider the next binder.
Which Kd value is on record for HEV[Hyp]SG[Hyp]NPISN [CLE41/44 or TDIF (tracheary elements differentiation inhibitory factor)] ?
10
